# Tested on: 171881-019-R-J1-PDC complex spheroid growth, % test/control
# procedure.text: Anticancer human tumor 171881-019-R-J1-PDC patient-derived invasive breast carcinoma cell line growth inhibition [Asc]
# measurement.parameters: curve of first compound; second compound 0.1 µM
# From the text: Multicellular complex tumor spheroid response to apoptosis pathway targeting inhibitors Alrizomadlin, Pelcitoclax, and Dasminapant in combination with a variety of drugs and investigational agents in selected tumor cell lines […] Compounds. […] If the clinical Cmax for an agent had not been determined, the highest concentration tested was 10 microM. […]
// IC50 lookup, one value per entry
reported.endpoint: IC50

[[record]]
compound = "NC1CCC(NC2CC2c2ccccc2)CC1 (centres undefined) + CNC(C)C(=O)NC1CN(S(=O)(=O)c2cccc(S(=O)(=O)N3CCC4CCC(C(=O)NC(c5ccccc5)c5ccccc5)N4C(=O)C(NC(=O)C(C)NC)C3)c2)CCC2CCC(C(=O)NC(c3ccccc3)c3ccccc3)N2C1=O"
result = "> 100 nM"

[[record]]
compound = "C#Cc1c(F)ccc2cc(O)cc(-c3ncc4c(N5CC6CCC(C5)N6)nc(OCC56CCCN5CC(F)C6)nc4c3F)c12 (centres undefined) + Cc1c(S(C)(=O)=O)c(-c2cc(F)cc(N3CCN(c4ccc(NS(=O)(=O)c5ccc(NC(CCN6CCC(C(=O)OCCCP(=O)(O)O)CC6)CSc6ccccc6)c(S(=O)(=O)C(F)(F)F)c5)cc4)CC3)c2)c(-c2ccc(Cl)cc2)n1C(C)C"
result = "> 10000 nM"

[[record]]
compound = "CNC(C)C(=O)NC1CN(S(=O)(=O)c2cccc(S(=O)(=O)N3CCC4CCC(C(=O)NC(c5ccccc5)c5ccccc5)N4C(=O)C(NC(=O)C(C)NC)C3)c2)CCC2CCC(C(=O)NC(c3ccccc3)c3ccccc3)N2C1=O (centres undefined) + Cc1c(S(C)(=O)=O)c(-c2cc(F)cc(N3CCN(c4ccc(NS(=O)(=O)c5ccc(NC(CCN6CCC(C(=O)OCCCP(=O)(O)O)CC6)CSc6ccccc6)c(S(=O)(=O)C(F)(F)F)c5)cc4)CC3)c2)c(-c2ccc(Cl)cc2)n1C(C)C"
result = "> 1000 nM"

[[record]]
compound = "Cc1nc(N2CCC3(CC2)COC(C)C3N)c(CO)nc1Sc1ccnc(N)c1Cl (centres undefined) + CNC(C)C(=O)NC1CN(S(=O)(=O)c2cccc(S(=O)(=O)N3CCC4CCC(C(=O)NC(c5ccccc5)c5ccccc5)N4C(=O)C(NC(=O)C(C)NC)C3)c2)CCC2CCC(C(=O)NC(c3ccccc3)c3ccccc3)N2C1=O"
result = "> 3000 nM"


Where do these numbers come from? They come from PubChem BioAssay AID1963428.
